biological target: T1, Anti-CD28 Fab (SEQ ID NOs: 696, 697); experiment: phage binding ELISA on plate-captured anti-CD28 Fab pre-incubated with CD28 antigen as competitor
T1 construct: In the phage ELISA the Fab was biotinylated and captured on neutravidin coated plates
T1 sequence (VH, as listed by the source, chain 1 of 2): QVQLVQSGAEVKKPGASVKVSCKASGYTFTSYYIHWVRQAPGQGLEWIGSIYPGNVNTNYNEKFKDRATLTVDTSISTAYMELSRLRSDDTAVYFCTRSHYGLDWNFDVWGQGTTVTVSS
T1 sequence (VL, as listed by the source, chain 2 of 2): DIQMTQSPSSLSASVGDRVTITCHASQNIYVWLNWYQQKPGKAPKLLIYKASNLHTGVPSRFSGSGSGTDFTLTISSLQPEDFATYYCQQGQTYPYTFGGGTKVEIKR
Where no end group is shown, it is not given here.
This listing pairs binders with measured Anti-CD28 Fab signal in the presence of CD28 (phage binding ELISA).

Recorded Anti-CD28 Fab signal in the presence of CD28 (phage binding ELISA), per entry:
YCSGHSWAYIGKCL (cysteine pairing not given here; also: displayed on phage by fusion to pIII, linker and pIII sequence not given here, Tested as clonal phage supernatant) [Phage-1224] ... 0.07
YCAGHAAEYMWKCL (cysteine pairing not given here; also: displayed on phage by fusion to pIII, linker and pIII sequence not given here, Tested as clonal phage supernatant) [Phage-1225] ... 0.06
YCEGHVPEYLVKCL (cysteine pairing not given here; also: displayed on phage by fusion to pIII, linker and pIII sequence not given here, Tested as clonal phage supernatant) [Phage-1227] ... 0.06
YCAGHLDVYMSKCL (cysteine pairing not given here; also: displayed on phage by fusion to pIII, linker and pIII sequence not given here, Tested as clonal phage supernatant) [Phage-1230] ... 0.09
YCDGHTGMYISKCL (cysteine pairing not given here; also: displayed on phage by fusion to pIII, linker and pIII sequence not given here, Tested as clonal phage supernatant) [Phage-1223] ... 0.06

Query :: Name the reported Anti-CD28 Fab signal in the presence of CD28 (phage binding ELISA) value associated with the binder YCDGHSKEYMSKCL (cysteine pairing not given here; also: displayed on phage by fusion to pIII, linker and pIII sequence not given here, Tested as clonal phage supernatant) [Phage-1228]
Result :: 0.07

Query :: # iterate: YCEGHSAIYIAKCM (cysteine pairing not given here; also: displayed on phage by fusion to pIII, linker and pIII sequence not given here, Tested as clonal phage supernatant) [Phage-1221]
Result :: 0.11
